Protein target, amino acids: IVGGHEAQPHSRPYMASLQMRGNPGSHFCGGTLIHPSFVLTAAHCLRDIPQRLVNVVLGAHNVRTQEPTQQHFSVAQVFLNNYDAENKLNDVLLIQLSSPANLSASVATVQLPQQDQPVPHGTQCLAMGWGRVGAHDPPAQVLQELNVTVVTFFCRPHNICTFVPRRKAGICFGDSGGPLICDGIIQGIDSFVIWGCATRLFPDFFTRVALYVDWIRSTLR
pIC50: −log10 of the molar value. Where a SMILES comes first, the peptide text is derived from it. [ ]: non-standard residue; d: D form. Oic = O=C(O)[C@@H]1C[C@@H]2CCCC[C@@H]2N1; Gly(octyl) = CCCCCCCC[C@H](N)C(=O)O; hTyr = N[C@@H](CCc1ccc(O)cc1)C(=O)O; Nlys = NCCCCNCC(=O)O
Documented pIC50 across a set of compounds

COMPOUND	COMPARISON_SIGN	pIC50
CCCCCCCC[C@@H]1NC(=O)[C@H](Cc2ccc(O)cc2)NC(=O)[C@@H](Cc2ccc(O)cc2)NC(=O)[C@H]([C@@H](C)O)NC(=O)[C@H](CCCCN)NC(=O)[C@H](CCC(N)=O)NC(=O)[C@@H]2CCCN2C(=O)[C@@H]2CCCN2C(=O)[C@H]([C@@H](C)CC)NC(=O)[C@H](CO)NC(=O)[C@H](C)NC(=O)[C@H]([C@@H](C)O)NC(=O)[C@H](CCC(=O)O)NC1=O [Example 24] (cyclo([Gly(octyl)]ETASIPPQKT[dY]Y))	=	5.11
CC[C@H](C)[C@@H]1NC(=O)[C@H](CO)NC(=O)[C@H](C)NC(=O)[C@H]([C@@H](C)O)NC(=O)[C@H](CCC(=O)O)NC(=O)[C@H](CCC(=O)N[C@@H](Cc2ccccc2)C(=O)O)NC(=O)[C@@H]2CCCN2C(=O)[C@H]2CCCN2C(=O)[C@H](Cc2ccc(O)cc2)NC(=O)[C@H](CCCCN)NC(=O)[C@H](CCC(N)=O)NC(=O)[C@@H]2CCCN2C(=O)[C@@H]2CCCN2C1=O [Example 18] (cyclo(E(Phe)ETASIPPQKY[dP]P))	=	4.34
CCCCCCCC[C@@H]1NC(=O)[C@@H](CCC(=O)O)NC(=O)[C@H]2CCCN2C(=O)[C@H]([C@@H](C)O)NC(=O)[C@H](CCCCN)NC(=O)[C@H](CCC(N)=O)NC(=O)[C@@H]2CCCN2C(=O)[C@@H]2CCCN2C(=O)[C@H]([C@@H](C)CC)NC(=O)[C@H](CO)NC(=O)[C@H](C)NC(=O)[C@H]([C@@H](C)O)NC(=O)[C@H](CCC(=O)O)NC1=O [Example 40] (cyclo([Gly(octyl)]ETASIPPQKT[dP][dE]))	<	4.00
CCCCCCCC[C@@H]1NC(=O)[C@H](CCC(=O)O)NC(=O)[C@@H](CCCCN)NC(=O)[C@H]([C@@H](C)O)NC(=O)[C@H](CCCCN)NC(=O)[C@H](CCC(N)=O)NC(=O)[C@@H]2CCCN2C(=O)[C@@H]2CCCN2C(=O)[C@H]([C@@H](C)CC)NC(=O)[C@H](CO)NC(=O)[C@H](C)NC(=O)[C@H]([C@@H](C)O)NC(=O)[C@H](CCC(=O)O)NC1=O [Example 29] (cyclo([Gly(octyl)]ETASIPPQKT[dK]E))	=	4.20
CCCCCCCC[C@@H]1NC(=O)[C@@H]2CCCN2C(=O)[C@H]2CCCN2C(=O)[C@H](CC(N)=O)NC(=O)[C@H](CCCCN)NC(=O)[C@H](CCC(N)=O)NC(=O)[C@@H]2CCCN2C(=O)[C@@H]2CCCN2C(=O)[C@H]([C@@H](C)CC)NC(=O)[C@H](CO)NC(=O)[C@H](C)NC(=O)[C@H]([C@@H](C)O)NC(=O)[C@H](CCc2ccc(O)cc2)NC1=O [Example 48] (cyclo([Gly(octyl)][hTyr]TASIPPQKN[dP]P))	=	5.96
CC[C@H](C)[C@@H]1NC(=O)[C@H](CO)NC(=O)[C@H](C)NC(=O)[C@H]([C@@H](C)O)NC(=O)[C@H](CCc2ccc(O)cc2)NC(=O)[C@H](CCCNC(=N)N)NC(=O)[C@@H]2CCCN2C(=O)[C@H]2CCCN2C(=O)[C@H]([C@@H](C)O)NC(=O)[C@H](CCCCN)NC(=O)[C@H](CCC(N)=O)NC(=O)[C@@H]2C[C@@H]3CCCC[C@@H]3N2C(=O)[C@@H]2CCCN2C1=O [Example 42] (cyclo(R[hTyr]TASIP[Oic]QKT[dP]P))	<	4.00
CCCCCCCC[C@@H]1NC(=O)[C@@H]2CCCN2C(=O)[C@H]2CCCN2C(=O)[C@H]([C@@H](C)O)NC(=O)[C@H](CCCCN)NC(=O)[C@H](CCC(N)=O)NC(=O)[C@@H]2CCCN2C(=O)[C@@H]2CCCN2C(=O)[C@H]([C@@H](C)CC)NC(=O)[C@H](CO)NC(=O)[C@H](C)NC(=O)[C@H]([C@@H](C)O)NC(=O)[C@H](Cc2ccccc2)NC1=O [Example 13] (cyclo([Gly(octyl)]FTASIPPQKT[dP]P))	<	4.00
CC[C@H](C)[C@@H]1NC(=O)[C@H](CO)NC(=O)[C@H](C)NC(=O)[C@H]([C@@H](C)O)NC(=O)[C@H](C(C)C)NC(=O)[C@H](CCCNC(=N)N)NC(=O)[C@@H]2CCCN2C(=O)[C@H]2CCCN2C(=O)[C@H]([C@@H](C)O)NC(=O)[C@H](CCCCN)NC(=O)[C@H](CCC(N)=O)NC(=O)[C@@H]2C[C@@H]3CCCC[C@@H]3N2C(=O)[C@@H]2CCCN2C1=O [Example 41] (cyclo(RVTASIP[Oic]QKT[dP]P))	<	4.00
CCCCCCCC[C@@H]1NC(=O)[C@@H]2CCCN2C(=O)[C@H]2CCCN2C(=O)[C@H]([C@@H](C)O)NC(=O)[C@H](CCCCN)NC(=O)[C@H](CCC(N)=O)NC(=O)[C@@H]2CCCN2C(=O)CN(CCCCN)C(=O)[C@H]([C@@H](C)CC)NC(=O)[C@H](CO)NC(=O)[C@H](C)NC(=O)[C@H]([C@@H](C)O)NC(=O)[C@H](CCC(=O)O)NC1=O [Example 33] (cyclo([Gly(octyl)]ETASI[Nlys]PQKT[dP]P))	=	5.21
CCCCCCCC[C@@H]1NC(=O)[C@H](CCCCN)NC(=O)[C@@H](CO)NC(=O)[C@H]([C@@H](C)O)NC(=O)[C@H](CCCCN)NC(=O)[C@H](CCC(N)=O)NC(=O)[C@@H]2CCCN2C(=O)[C@@H]2CCCN2C(=O)[C@H]([C@@H](C)CC)NC(=O)[C@H](CO)NC(=O)[C@H](C)NC(=O)[C@H]([C@@H](C)O)NC(=O)[C@H](CCC(=O)O)NC1=O [Example 32] (cyclo([Gly(octyl)]ETASIPPQKT[dS]K))	<	4.00
